Target: STAT5b-SH2 domain (Homo sapiens, UniProt P51692)
Sequence (P51692 136-703): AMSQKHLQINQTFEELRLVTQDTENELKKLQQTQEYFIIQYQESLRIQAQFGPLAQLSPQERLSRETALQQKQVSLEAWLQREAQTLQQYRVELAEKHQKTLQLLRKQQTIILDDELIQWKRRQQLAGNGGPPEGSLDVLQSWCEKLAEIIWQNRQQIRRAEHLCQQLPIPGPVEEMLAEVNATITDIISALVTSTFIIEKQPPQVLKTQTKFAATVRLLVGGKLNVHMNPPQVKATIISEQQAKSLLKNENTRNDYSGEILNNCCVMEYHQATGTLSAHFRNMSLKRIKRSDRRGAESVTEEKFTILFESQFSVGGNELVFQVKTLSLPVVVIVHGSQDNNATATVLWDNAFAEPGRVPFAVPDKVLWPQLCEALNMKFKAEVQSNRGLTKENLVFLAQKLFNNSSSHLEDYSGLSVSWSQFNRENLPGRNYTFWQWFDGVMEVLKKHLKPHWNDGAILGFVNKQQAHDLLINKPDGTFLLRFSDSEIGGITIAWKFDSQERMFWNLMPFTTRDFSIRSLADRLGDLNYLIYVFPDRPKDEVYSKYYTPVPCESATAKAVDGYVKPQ
Where a SMILES comes first, the peptide text is derived from it. [ ]: non-standard residue; d: D form. The star is where a group is joined. 5FAM = O=C1OC2(c3ccc(O)cc3Oc3cc(O)ccc32)c2ccc(C(=O)*)cc21; pY = N[C@@H](Cc1ccc(OP(=O)(O)O)cc1)C(=O)O
Reported endpoint: pKd
Here pKd is given on a logarithmic scale as minus log10 of the concentration in mol/L.

These solved cases illustrate the format of a correct answer.
Measured pKd, COC(=O)c1nonc1NCn1cnnn1 : 4.12

Measured pKd, O=C(O)c1nonc1NCn1nnnc1-c1cccc(C(F)(F)F)c1 : 6.07

Measured pKd, CC(C)C[C@H](NC(=O)[C@H](Cc1ccc(OP(=O)(O)O)cc1)NC(=O)CNC(=O)c1ccc2c(c1)C(=O)OC21c2ccc(O)cc2Oc2cc(O)ccc21)C(=O)N[C@@H](CO)C(=O)N[C@@H](CC(C)C)C(=O)N1CCC[C@H]1C(=O)N1CCC[C@H]1C(=O)N[C@@H](Cc1c[nH]c2ccccc12)C(N)=O [Compound 2, Fluo-GY*LSLPPW-NH2, reference compound] (5FAM-G[pY]LSLPPW-NH2) : 7.26

Measured pKd, O=C(O)c1nonc1NCn1nnnc1-c1cccc(F)c1 : 6.21

Measured pKd, CC(=O)OC(C)OC(=O)c1nonc1NCn1cnnn1 (stereo not shown) : 4.85

Measured pKd, COC(=O)c1nonc1NCn1nnnc1-c1ccccc1 : 4.43

Others:
Measured pKd, O=C(O)c1nonc1NCn1nnnc1-c1ccc(-c2ccccc2)cc1 : 6.10

* * *

molecular target: STAT5b-SH2 domain (Homo sapiens); test: Competitive fluorescence polarization (FP) assay, STAT5b-SH2 domain
Reported endpoint: LE

These solved cases illustrate the format of a correct answer.
Measured LE, O=C(O)c1nonc1NCn1nnnc1Cc1ccc(F)cc1 : 1.28

Measured LE, COC(=O)c1nonc1NCn1nnnc1-c1cccc(OC(F)(F)F)c1 : 1.01

Measured LE, COC(=O)c1nonc1NCn1nnnc1-c1cccc(NS(C)(=O)=O)c1 : 1.00

Others:
Measured LE, COC(=O)c1nonc1NCn1nnnc1-c1ccccc1 : 1.15

* * *

test system: STAT5; assay: STAT5 phosphorylation, Western blot in BaF3/FLT3-ITD cells; conditions: read-out: IC50 of STAT5 phosphorylation inhibition; BaF3/FLT3-ITD cells, 6 h
Reported endpoint: pIC50
Here pIC50 is given on a logarithmic scale as minus log10 of the concentration in mol/L.

These solved cases illustrate the format of a correct answer.
Measured pIC50, O=C(O)c1nonc1NCn1nnnc1Cc1ccccc1 : 4.51

Measured pIC50, COC(=O)c1nonc1NCn1cnnn1 : 4.35

Consider the record given below.
Measured pIC50, CC(=O)OC(C)OC(=O)c1nonc1NCn1cnnn1 (stereo not drawn) : 4.16

* * *

Target: STAT5b-SH2 domain (Homo sapiens)
Sequence (P51692 136-703): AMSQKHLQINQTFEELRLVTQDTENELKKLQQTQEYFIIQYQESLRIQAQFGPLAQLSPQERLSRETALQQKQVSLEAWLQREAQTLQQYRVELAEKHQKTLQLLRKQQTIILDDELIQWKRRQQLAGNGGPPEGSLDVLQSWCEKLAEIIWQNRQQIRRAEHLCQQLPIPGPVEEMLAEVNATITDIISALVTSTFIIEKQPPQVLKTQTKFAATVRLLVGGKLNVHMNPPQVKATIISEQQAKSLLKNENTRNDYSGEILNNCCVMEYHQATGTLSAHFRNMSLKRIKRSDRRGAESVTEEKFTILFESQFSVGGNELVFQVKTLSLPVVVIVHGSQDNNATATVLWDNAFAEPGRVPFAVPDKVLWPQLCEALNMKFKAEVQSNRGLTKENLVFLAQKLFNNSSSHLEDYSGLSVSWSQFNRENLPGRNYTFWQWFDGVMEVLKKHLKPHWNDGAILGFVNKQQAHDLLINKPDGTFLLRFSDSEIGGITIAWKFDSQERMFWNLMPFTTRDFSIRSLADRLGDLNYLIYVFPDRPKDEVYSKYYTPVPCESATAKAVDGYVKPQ
Test: Competitive fluorescence polarization (FP) assay, STAT5b-SH2 domain
Reported endpoint: Ki (µM)
Write down the numeric answer in µM and omit the unit.

These solved cases illustrate the format of a correct answer.
Measured Ki, O=C(O)c1nonc1NCn1nnc2ccccc21 [Compound 12] : 188

Measured Ki, O=C(O)c1nonc1NCn1ccnn1 [Compound 9] : 191

Measured Ki, COC(=O)c1nonc1NCn1nnnc1-c1cccc(NS(C)(=O)=O)c1 [Compound 23] : 18.3

Others:
Measured Ki, COC(=O)c1nonc1NCn1cnnn1 [Compound 6] : 37.4

Measured Ki, COC(=O)c1nonc1NCn1nnnc1-c1ccccc1 [Compound 17] : 37.1

Measured Ki, O=C(O)c1nonc1NCn1nnnc1-c1cccc(OCc2ccccc2)c1 [Compound 19] : 1.2

Measured Ki, COC(=O)c1nonc1NCn1nnnc1-c1cccc(C(F)(F)F)c1 [Compound 20] : 9.5

Measured Ki, COC(=O)c1nonc1NCn1nnnc1-c1ccc(C(F)(F)F)cc1 [Compound 18] : 94.9

Measured Ki, CCCCOC(=O)c1nonc1NCn1cnnn1 [Compound 7] : 48.2

* * *

target: STAT5b-SH2 domain (Homo sapiens, UniProt P51692); experiment: Competitive fluorescence polarization (FP) assay, STAT5b-SH2 domain; settings: in words
Reported endpoint: activity / binding to the STAT5-SH2 domain

Measured activity / binding to the STAT5-SH2 domain, O=C(O)c1nonc1NCn1nnc2ccccc21 [Compound 12] : completely inactive

Measured activity / binding to the STAT5-SH2 domain, Nc1nonc1C(=O)O [Compound 4, 4-Amino-furazan-3-carboxylic Acid] : inactive

Measured activity / binding to the STAT5-SH2 domain, COC(=O)c1nsnc1NCn1cnnn1 [Compound 8] : inactive

Measured activity / binding to the STAT5-SH2 domain, c1nnn[nH]1 [Compound 5, 1H-tetrazole, reference compound] : inactive

Measured activity / binding to the STAT5-SH2 domain, O=C(O)c1nonc1NCn1ccnn1 [Compound 9] : completely inactive

Measured activity / binding to the STAT5-SH2 domain, O=C(O)c1nonc1NCn1cncn1 [Compound 10] : completely inactive

Consider the record given below.
Measured activity / binding to the STAT5-SH2 domain, O=C(O)c1nonc1NCc1ccccn1 [Compound 11] : completely inactive

* * *

Molecular target: STAT5b-SH2 domain (Homo sapiens, UniProt P51692)
Sequence (P51692 136-703): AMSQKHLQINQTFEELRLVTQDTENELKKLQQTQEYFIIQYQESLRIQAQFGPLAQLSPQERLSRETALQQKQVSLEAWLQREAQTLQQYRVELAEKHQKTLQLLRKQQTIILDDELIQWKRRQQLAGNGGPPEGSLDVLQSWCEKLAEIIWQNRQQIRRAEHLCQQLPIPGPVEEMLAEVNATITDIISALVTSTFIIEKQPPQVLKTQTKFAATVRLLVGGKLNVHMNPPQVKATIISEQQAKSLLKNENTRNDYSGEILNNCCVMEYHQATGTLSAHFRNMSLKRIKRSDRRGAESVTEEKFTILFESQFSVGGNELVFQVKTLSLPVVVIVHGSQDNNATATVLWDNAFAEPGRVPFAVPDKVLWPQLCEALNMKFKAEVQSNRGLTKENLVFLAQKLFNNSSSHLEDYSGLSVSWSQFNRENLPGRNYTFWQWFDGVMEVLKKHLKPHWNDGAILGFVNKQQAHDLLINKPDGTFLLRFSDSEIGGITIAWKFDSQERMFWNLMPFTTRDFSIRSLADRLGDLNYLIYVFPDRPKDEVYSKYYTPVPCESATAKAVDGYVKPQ
Assay: Competitive fluorescence polarization (FP) assay, STAT5b-SH2 domain
LE listing for selected compounds.
Please state the value as a number alone, without comment.

Measured LE, COC(=O)c1nonc1NCn1nnnc1-c1ccc(C(F)(F)F)cc1 : 0.88

Others:
Measured LE, O=C(O)c1nonc1NCn1nnnc1-c1cccc(OC(F)(F)F)c1 : 1.21

Measured LE, COC(=O)c1nonc1NCn1nnnc1-c1cccc(C(F)(F)F)c1 : 1.10

Measured LE, COC(=O)c1nonc1NCn1nnnc1-c1cccc(O)c1 : 1.21

Measured LE, O=C(O)c1nonc1NCn1nnnc1-c1ccc(-c2ccccc2)cc1 : 1.30

Data credit: patent US10683286B2
